- Tested on: NCI-H1975
- Assay Text: 3D cell viability (CellTiter-Glo)
- Assay type: cell-based
- Condition Set: Homo sapiens, 192 h; NCI-H1975, EGFR^L858R/T790M; 8 days of treatment; read-out: 3D CTG (IC50)
Readout: pIC50
Remember the convention: pIC50 equals -log10 of concentration in molar.

Form field: reported pIC50 of Cc1c(N2CCC3(CC2)CO[C@@H](C)[C@H]3N)nc(C)n(-c2cccc(Cl)c2Cl)c1=O (atropisomer, axis not shown; (Ra)) [Compound (10b)]
6.74

----------
- Assay Text: Single-dose pharmacokinetics, Cynomolgus monkey
- Format: in vivo, male)
- Condition Set: male, cynomolgus monkey, plasma; IV 0.3 mg/kg, free base; read-out: Clp (converted)
Readout: clearance (mL/min/kg)
Report only the number, with the unit mL/min/kg understood.

Form field: reported clearance of Cc1c(N2CCC3(CC2)CO[C@@H](C)[C@H]3N)nc(C)n(-c2cccc(Cl)c2Cl)c1=O (atropisomer, axis not shown; (Ra)) [Compound (10b)]
6

----------
- Assay Text: Single oral dose exposure in NOD/SCID mice
- Assay type: in vivo
- Condition Set: male, mouse, brain, single oral dose 1 mg/kg, read-out: total brain/plasma levels at 24 hours
Readout: Kp at 24 h
Please reply with the value in numeric form only.

Form field: reported Kp at 24 h of Cc1c(N2CCC3(CC2)CO[C@@H](C)[C@H]3N)nc(C)n(-c2cccc(Cl)c2Cl)c1=O (atropisomer, axis not shown; (Ra)) [Compound (10b)]
0.35

----------
- Assay Text: Single oral dose exposure in NOD/SCID mice
- Assay type: in vivo
- Condition Set: male, mouse, brain, single oral dose 3 mg/kg, read-out: total brain/plasma levels at 24 hours
Readout: Kp at 24 h

Form field: reported Kp at 24 h of Cc1c(N2CCC3(CC2)CO[C@@H](C)[C@H]3N)nc(C)n(-c2cccc(Cl)c2Cl)c1=O (atropisomer, axis not shown; (Ra)) [Compound (10b)]
0.31

Origin of the recorded values: patent US20250213563A1
